- EXPERIMENT SUMMARY: Cytotoxicity against MDCK cells
- Format: toxicity, cell-based, Canis lupus familiaris
- RECORDED CONDITIONS: dog
Reported CC50 values are given for each entry in this list.

The following molecules have reported results that may help.
- Cn1nnc(C(c2ccc(F)cc2)N2CCN(C(=O)c3cc(-c4nc5cc(NC(=O)C6CCCO6)ccc5o4)ccn3)CC2)n1 (configuration not stated): > 50 µM
- Cn1nnc(C(c2ccc(F)cc2)N2CCN(C(=O)c3cc(-c4nc5cc(NC(=O)c6ccco6)ccc5o4)ccn3)CC2)n1 (configuration not stated): 12.8 µM
- CC(=O)Nc1ccc2oc(-c3ccnc(C(=O)N4CCN(C(c5ccc(F)cc5)c5nnn(C6CCCCC6)n5)CC4)c3)nc2c1 (configuration not stated): > 50 µM
- CC(=O)Nc1ccc2oc(-c3ccnc(C(=O)N4CCN([C@H](c5ccc(F)cc5)c5nnn(C(C)C)n5)CC4)c3)nc2c1: > 100 µM
- CC(=O)Nc1ccc2oc(-c3ccnc(C(=O)N4CCN(C(c5ccc(F)cc5)c5nnn(CC6CCCCC6)n5)CC4)c3)nc2c1 (configuration not stated): 38.5 µM

Task: Look up CC50 for this molecule: CC(=O)Nc1ccc2sc(-c3ccnc(C(=O)N4CCN(C(c5ccccc5)c5nnnn5C(C)C)CC4)c3)nc2c1 (configuration not stated)
Output: 38.5 µM

Task: Look up CC50 for this molecule: CCC(CC)n1nnc([C@@H](c2ccc(F)cc2)N2CCN(C(=O)c3cc(-c4nc5cc(NC(C)=O)ccc5o4)ccn3)CC2)n1
Output: > 100 µM

###

Reported CC50 values are given for each entry in this list.
- EXPERIMENT SUMMARY: Cytotoxicity against MDCK cells
- Type: toxicity, cell-based, Canis lupus familiaris
- RECORDED CONDITIONS: dog

The following molecules have reported results that may help.
• CCC(CC)n1nnc(C(c2ccc(F)cc2)N2CCN(C(=O)c3cc(-c4nc5cc(NC(C)=O)ccc5o4)ccn3)CC2)n1 (centres undefined) = > 50 µM
• CCCCn1nnc(C(c2ccc(F)cc2)N2CCN(C(=O)c3cc(-c4nc5cc(NC(C)=O)ccc5o4)ccn3)CC2)n1 (centres undefined) = > 50 µM

Task: Look up CC50 for this molecule: Cn1nnc(C(c2ccc(F)cc2)N2CCN(C(=O)c3cc(-c4nc5cc(NC(=O)C6CCCCC6)ccc5o4)ccn3)CC2)n1 (centres undefined)
Output: 1.43 µM

Task: Look up CC50 for this molecule: CC(=O)Nc1ccc2oc(-c3ccnc(C(=O)N4CCN([C@H](c5ccccc5)c5nnn(C(C)C)n5)CC4)c3)nc2c1
Output: > 100 µM

Task: Look up CC50 for this molecule: CC(=O)Nc1ccc2oc(-c3ccnc(C(=O)N4CCN([C@@H](c5ccc(F)cc5)c5nnn(CCC(C)C)n5)CC4)c3)nc2c1
Output: > 100 µM

Task: Look up CC50 for this molecule: Cn1nnc(C(c2ccc(F)cc2)N2CCN(C(=O)c3cc(-c4nc5cc(NC(=O)c6ccccc6)ccc5o4)ccn3)CC2)n1 (centres undefined)
Output: 10.7 µM

Task: Look up CC50 for this molecule: C=Cn1nnc(C(c2ccc(F)cc2)N2CCN(C(=O)c3cc(-c4nc5cc(NC(C)=O)ccc5o4)ccn3)CC2)n1 (centres undefined)
Output: > 50 µM

Task: Look up CC50 for this molecule: C=Cn1nnc([C@H](c2ccc(F)cc2)N2CCN(C(=O)c3cc(-c4nc5cc(NC(C)=O)ccc5o4)ccn3)CC2)n1
Output: > 100 µM

Task: Look up CC50 for this molecule: CCC(=O)Nc1ccc2oc(-c3ccnc(C(=O)N4CCN(C(c5ccc(F)cc5)c5nnn(C)n5)CC4)c3)nc2c1 (centres undefined)
Output: > 50 µM
